test: Pharmacokinetic properties after PO/IV cassette dosing; assay type: in vivo, Balb/C mice; details: Balb/C, mouse, plasma; IV 1 mg/kg and/or PO 10 mg/kg cassette dose
result_type: Tmax (h)

O=C1/C(=C/c2ccc(-c3ccc(-c4nnn[nH]4)cc3)o2)SC(=S)N1Cc1ccccc1	0.5
O=C(O)c1ccc(-c2ccc(/C=C3\OC(=S)N(Cc4ccc(F)cc4)C3=O)o2)cc1	2
O=C(O)c1ccc(-c2ccc(/C=C3\OC(=S)N(Cc4ccccc4)C3=O)o2)cc1	2
O=C(O)c1ccc(-c2ccc(/C=C3\SC(=S)N(Cc4ccccc4)C3=O)o2)cn1	0.5

---

biological target: integrin CD11b/CD18 (K562 CD11b/CD18 cells) (Homo sapiens, UniProt P05107+P11215); construct: host or cells: K562 cells stably transfected with wild-type CD11b/CD18; assay: K562 cell adhesion assay with immobilized ligands; type: cell-based; details: cell-based adhesion assay, K562 cells, 30 min at 37° C.
pEC50: −log10 of the molar value.
result_type: pEC50

COC(=O)c1ccc(-c2cccc(/C=C3\SC(=S)N(Cc4ccccc4)C3=O)n2)cc1	< 5.00
Cc1ccc(CN2C(=O)/C(=C/c3ccc(-c4ccc(C(=O)O)cc4)o3)SC2=S)cc1C	6.60 to 7.00
O=C(O)c1ccc(-c2ccc(/C=C3\OC(=S)N(Cc4ccccc4)C3=O)o2)cc1	6.00 to 6.60
O=C(O)c1ccc(-c2ccc(/C=C3\SC(=S)N(Cc4ccccc4)C3=O)o2)cn1	6.60 to 7.00
Cc1ccccc1CN1C(=O)/C(=C/c2ccc(-c3ccc(C(=O)O)cc3)o2)SC1=S	6.00 to 6.60
COc1ccc(CN2C(=O)/C(=C/c3ccc(-c4ccc(C(=O)O)cc4)o3)SC2=S)cc1	6.60 to 7.00
COC(=O)c1ccc(-c2cccc(/C=C3\SC(=S)N(Cc4ccccc4)C3=O)c2)cc1	< 5.00
COC(=O)c1ccc(-c2ccc(/C=C3\OC(=S)N(Cc4ccc(F)cc4)C3=O)o2)cn1	6.00 to 6.60
O=C(O)c1ccc(-c2ccc(/C=C3\SC(=S)N(CC4CCCCC4)C3=O)o2)cc1	5.00 to 6.00
O=C(O)c1ccc(-c2ccc(/C=C3\NC(=O)N(Cc4ccccc4)C3=O)o2)cc1	< 5.00
O=C(O)c1ccc(-c2ccc(CN3CC(=O)N(Cc4ccccc4)C3=O)o2)cc1	< 5.00
COC(=O)c1ccc(-c2ccc(/C=C3\SC(=S)N(Cc4ccccc4)C3=O)o2)cn1	6.00 to 6.60
Cc1cccc(CN2C(=O)/C(=C/c3ccc(-c4ccc(C(=O)O)cc4)o3)SC2=S)c1C	6.00 to 6.60
O=C(O)c1ccc(-c2ccc(/C=C3\SC(=S)N(Cc4ccc(F)cc4)C3=O)o2)cc1	6.60 to 7.00
O=C(O)c1ccc(-c2ccc(/C=C3\OC(=S)N(Cc4ccc(F)cc4)C3=O)o2)cc1	6.60 to 7.00
O=C(O)c1ccc(-c2ccnc(/C=C3\SC(=S)N(Cc4ccc(F)cc4)C3=O)c2)cc1	5.00 to 6.00
O=C(O)c1ccc(-c2cccc(/C=C3\OC(=S)N(Cc4ccc(F)cc4)C3=O)c2)cc1	< 5.00

---

Assay: Pharmacokinetic properties after PO/IV cassette dosing
Assay type: in vivo, Balb/C mice
Settings: Balb/C, mouse, plasma; IV 1 mg/kg and/or PO 10 mg/kg cassette dose
Method: Integrin agonists as described above were administered to Balb/C mice orally (PO; gavage; 10 mg/kg) and/or intravenously (IV; bolus through tail vein; 1 mg/kg) as a cassette dose with 2 to 3 compounds dosed at a time. A total of twelve mice between age 5-6 weeks with a body weight range of 24-28 g were used. […] Data Analysis: Na2EDTA plasma samples were analyzed using a fit-for-purpose LC-MS/MS method.
result_type: half-life

O=C(O)c1ccc(-c2ccc(/C=C3\OC(=S)N(Cc4ccccc4)C3=O)o2)cc1	1.97 h
O=C(O)c1ccc(-c2ccc(/C=C3\SC(=S)N(Cc4ccccc4)C3=O)o2)cn1	1.39 h
O=C(O)c1ccc(-c2ccc(/C=C3\OC(=S)N(Cc4ccc(F)cc4)C3=O)o2)cc1	3.09 h
O=C1/C(=C/c2ccc(-c3ccc(-c4nnn[nH]4)cc3)o2)SC(=S)N1Cc1ccccc1	0.77 h

Where these numbers come from: patent US20200123146A1
